Reference source: patent US6022880A

- Tested system: MAO-A (Rattus norvegicus, UniProt P21396)
- Sequence (P21396 1-526): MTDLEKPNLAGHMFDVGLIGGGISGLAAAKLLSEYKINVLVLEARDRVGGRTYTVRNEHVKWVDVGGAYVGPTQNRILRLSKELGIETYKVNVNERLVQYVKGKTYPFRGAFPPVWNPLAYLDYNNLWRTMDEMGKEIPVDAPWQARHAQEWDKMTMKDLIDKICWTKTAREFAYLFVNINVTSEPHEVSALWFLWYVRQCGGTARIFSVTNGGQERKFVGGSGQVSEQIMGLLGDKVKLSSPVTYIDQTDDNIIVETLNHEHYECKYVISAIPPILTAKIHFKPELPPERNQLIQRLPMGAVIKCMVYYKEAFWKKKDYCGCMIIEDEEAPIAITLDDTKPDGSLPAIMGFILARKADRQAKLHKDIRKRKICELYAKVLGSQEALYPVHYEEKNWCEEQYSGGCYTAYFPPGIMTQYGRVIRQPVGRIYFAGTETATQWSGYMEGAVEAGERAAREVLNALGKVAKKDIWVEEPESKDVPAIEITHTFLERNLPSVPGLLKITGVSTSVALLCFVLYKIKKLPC
- Assay details: biochemical
- Condition notes: substrate [3H]-5HT 200 μM; read-out: Inhibitory Concentration - IC50 MAO-A
Counter-ions that a name gives are not always drawn.
Observation type: pIC50
Value format note: pIC50 is -log10 of concentration (mol/L); just state the number.

Please indicate pIC50 recorded for c1ccc2c(Nc3ccncc3)noc2c1 [3-[(4-pyridinyl)amino]-1,2-benzisoxazole]
6.19

Please indicate pIC50 recorded for Clc1ccc2c(Nc3ccncc3)csc2c1 [hydrochloride]
4.98

Please indicate pIC50 recorded for CCCN(c1ccncc1)c1csc2cc(OC)ccc12 [hydrochloride]
3.74

----------
- Tested system: UniProt:P19643
- Sequence (P19643 whole entry): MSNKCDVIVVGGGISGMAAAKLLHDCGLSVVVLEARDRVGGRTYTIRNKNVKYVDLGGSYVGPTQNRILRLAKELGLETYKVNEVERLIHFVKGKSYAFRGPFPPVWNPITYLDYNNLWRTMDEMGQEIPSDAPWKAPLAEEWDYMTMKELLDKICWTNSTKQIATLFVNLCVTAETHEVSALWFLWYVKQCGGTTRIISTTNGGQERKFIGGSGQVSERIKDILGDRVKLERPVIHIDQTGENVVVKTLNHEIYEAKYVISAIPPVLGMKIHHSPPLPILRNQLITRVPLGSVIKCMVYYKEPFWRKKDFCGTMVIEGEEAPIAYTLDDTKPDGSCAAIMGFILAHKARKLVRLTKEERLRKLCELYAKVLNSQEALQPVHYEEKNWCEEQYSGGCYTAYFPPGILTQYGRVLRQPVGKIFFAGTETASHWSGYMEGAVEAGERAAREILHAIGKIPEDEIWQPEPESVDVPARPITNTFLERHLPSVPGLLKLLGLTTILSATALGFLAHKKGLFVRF
- Assay details: biochemical
- Set-up: species or system rat (male Wistar, whole brain minus cerebellum)
- Condition notes: substrate [14C]-PEA 200 μM; read-out: Inhibitory Concentration - IC50 MAO-B
Counter-ions that a name gives are not always drawn.
Observation type: IC50 (µM)
All answers are understood in µM, so give the number only.

[[record]]
molecule = "c1ccc2c(Nc3ccncc3)noc2c1 [3-[(4-pyridinyl)amino]-1,2-benzisoxazole]"
observation_type = "IC50"
numeric_value = 3.9

[[record]]
molecule = "CCCN(c1ccncc1)c1csc2cc(OC)ccc12 [hydrochloride]"
observation_type = "IC50"
numeric_value = 205


Please indicate IC50 recorded for Clc1ccc2c(Nc3ccncc3)csc2c1 [hydrochloride]
51

Please indicate IC50 recorded for c1ccc2c(Nc3ccncc3)csc2c1 [hydrochloride]
18

Please indicate IC50 recorded for FC(F)(F)c1ccc2c(Nc3ccncc3)csc2c1 [hydrochloride]
165

Please indicate IC50 recorded for Clc1ccc2c(Nc3ccncc3)noc2c1 [maleate]
51

Please indicate IC50 recorded for COc1ccc2c(Nc3ccncc3)csc2c1 [hydrochloride]
17

----------
- Tested system: 5HT1A receptor (Rattus norvegicus)
- Sequence (P19327 1-422): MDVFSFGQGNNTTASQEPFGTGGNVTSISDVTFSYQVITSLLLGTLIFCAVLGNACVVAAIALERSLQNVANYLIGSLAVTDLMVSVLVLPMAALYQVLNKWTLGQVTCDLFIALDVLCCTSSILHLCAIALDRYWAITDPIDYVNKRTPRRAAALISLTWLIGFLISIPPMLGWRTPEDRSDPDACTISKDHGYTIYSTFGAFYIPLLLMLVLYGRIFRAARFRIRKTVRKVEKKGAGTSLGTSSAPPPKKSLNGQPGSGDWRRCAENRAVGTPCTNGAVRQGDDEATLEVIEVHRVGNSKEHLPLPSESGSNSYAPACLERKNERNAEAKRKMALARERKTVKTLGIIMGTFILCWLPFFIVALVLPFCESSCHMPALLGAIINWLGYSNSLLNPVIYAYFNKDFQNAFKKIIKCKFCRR
Observation type: pIC50
Value format note: pIC50 is -log10 of concentration (mol/L); just state the number.

# lookup: 5HT1A receptor (Rattus norvegicus) pIC50, key = "c1ccc2c(Nc3ccncc3)c[nH]c2c1"
5.19
